- Tested on: NCI-H23
- METHOD SUMMARY: NCI tumour cell line growth inhibition, 48 h
Calls of active or inactive are those of the source. No stated cut-off is given here; in the data, active = GI50 up to about 1.1 µM and inactive = higher.
API: response.call in active, inactive

Solved cases (3 shown):
{"columns": ["MOLECULE", "CLASS LABEL"],
 "data": [
  ["COc1cc2cc(C(=O)N3CC(CCl)c4c3cc(N)c3ccccc43)[nH]c2cc1OCCN(C)C (centres undefined)", "active"],
  ["O/N=C\\c1c2c(cc3c1CCC3)CCC2", "inactive"],
  ["Nc1ncnc2c1ccn2CC=C(CO)CO", "inactive"]
]}

Turning now to a further molecule:
Entry Cc1cc(O)c(C(C)C)cc1SC#N : call = ?
inactive

---

- Test system: SNB-19
- METHOD SUMMARY: NCI tumour cell line growth inhibition, 48 h
Active and inactive are the calls of the source. Rule as the data show it: active = GI50 up to about 1.1 µM and inactive = higher.
Parameter: GI50. Scope: all listed entries.

{"columns": ["COMPOUND", "REPORTED METRIC", "VALUE REPORTED"],
 "data": [
  ["NCC(Cc1ccccc1)P(=O)(O)O (centres undefined)", "GI50", "> 100 µM (inactive)"],
  ["CCN1C[C@]2(C)CC[C@H](O)C34C1C(C[C@@H]32)[C@@]1(O)CC[C@H]2C[C@@H]4[C@@H]1[C@H]2O", "GI50", "> 100 µM (inactive)"],
  ["COC1=CC(=O)N(C(=O)C2CSC(C(CO)NC(=O)c3csc(/C=N/O)n3)=N2)C1 (centres undefined)", "GI50", "> 100 µM (inactive)"],
  ["O=C(CC1C=Cc2ccccc2N1C(=O)c1ccccc1)c1ccccc1 (centres undefined)", "GI50", "27.7 µM (inactive)"],
  ["N/N=C1\\c2ccccc2C2/C(=N\\N)c3ccccc3C12 (centres undefined)", "GI50", "> 100 µM (inactive)"],
  ["O=C1N(c2ccccc2)N=C2c3ccncc3C3=NN(c4ccccc4)C(=O)C123 (centres undefined)", "GI50", "> 100 µM (inactive)"],
  ["COc1cc(Br)c(/C=N\\c2cccc3ccc(OS(=O)(=O)c4ccc([N+](=O)[O-])cc4)cc23)cc1OC", "GI50", "63.4 µM (inactive)"],
  ["NS(=O)(=O)c1ccc(NC(=O)c2cccn3c(=O)c4ccccc4nc23)cc1", "GI50", "> 100 µM (inactive)"]
]}

Now look at this one.
// fetch SNB-19 GI50 for CN1CC2=C(N=C(S)NC2c2ccccc2)/C(=C/c2ccccc2)C1 (centres undefined)
> 100 µM (inactive)

---

- Tested on: SF-268
- METHOD SUMMARY: NCI tumour cell line growth inhibition, 48 h
The source made the active and inactive calls. Rule as the data show it: active = GI50 up to about 1.1 µM and inactive = higher. Residues, ends and D or L forms follow the SMILES beside them. *: point of attachment. Ethyl(2-NMe3+) = C[N+](C)(C)CC*; Boc = CC(C)(C)OC(=O)*
I would appreciate it if you answered using one of these outcomes: TRUE for active, FALSE for inactive

{"columns": ["MOLECULE", "CLASS LABEL"],
 "data": [
  ["NS(=O)(=O)c1ccc(NC(=O)c2cccn3c(=O)c4ccccc4nc23)cc1", "FALSE"],
  ["CC(=O)Nc1cccc(N2C(=O)/C(=C\\c3cccc(Oc4ccccc4)c3)SC2c2ccccc2)c1 (centres undefined)", "FALSE"],
  ["COc1cc(/C=C2\\CCC(CN(C)C)C2=O)ccc1OC(=O)c1ccccc1 (centres undefined)", "FALSE"],
  ["CC(NC(=O)C(Cc1ccc(OCC[N+](C)(C)C)cc1)NC(=O)OC(C)(C)C)C(=O)NC(Cc1ccccc1)C(=O)NCC(N)=O (centres undefined) (Boc-Y(Ethyl(2-NMe3+))AFG-NH2; configuration not given here)", "FALSE"],
  ["CCCCCCCCC(=O)N(C)C1C2CN3CCC(O2)C13 (centres undefined)", "FALSE"]
]}

So what was the verdict on CC1OC(OC2C(O[C@H]3CC[C@@]4(C)C(=CC[C@H]5[C@@H]6C[C@@H]7O[C@]8(CC[C@@H](C)CO8)[C@@H](C)[C@@H]7[C@@]6(C)CC[C@@H]54)C3)OC(CO)C(OC3OC(CO)C(O)C3O)C2O)C(O)C(O)C1O (some centres undefined) in this test?
TRUE

Another molecule to check: O=S(=O)(O)c1ccc(/N=N\c2ccc(/N=N\c3ccc(/C=C/c4ccc(/N=[N+](/[O-])c5ccc(/C=C/c6ccc(/N=N/c7ccc(/N=N\c8ccc(S(=O)(=O)O)cc8)cc7)cc6S(=O)(=O)O)c(S(=O)(=O)O)c5)cc4S(=O)(=O)O)c(S(=O)(=O)O)c3)cc2)cc1
FALSE

Please do the same for O=C1CCCCC/C1=C\c1ccc(F)cc1 as well.
FALSE

Try this molecule too: COC(=O)c1ccccc1Nc1ccccc1C(=O)OC
FALSE

Values from ChEMBL document CHEMBL1201862
